Experiment: self-splicing fitness, log relative to wild type (ln ratio); higher = more splicing; Tetrahymena group I intron in knt gene, E. coli kanamycin selection, DiMSum; sequences stand for … in CUCUCU…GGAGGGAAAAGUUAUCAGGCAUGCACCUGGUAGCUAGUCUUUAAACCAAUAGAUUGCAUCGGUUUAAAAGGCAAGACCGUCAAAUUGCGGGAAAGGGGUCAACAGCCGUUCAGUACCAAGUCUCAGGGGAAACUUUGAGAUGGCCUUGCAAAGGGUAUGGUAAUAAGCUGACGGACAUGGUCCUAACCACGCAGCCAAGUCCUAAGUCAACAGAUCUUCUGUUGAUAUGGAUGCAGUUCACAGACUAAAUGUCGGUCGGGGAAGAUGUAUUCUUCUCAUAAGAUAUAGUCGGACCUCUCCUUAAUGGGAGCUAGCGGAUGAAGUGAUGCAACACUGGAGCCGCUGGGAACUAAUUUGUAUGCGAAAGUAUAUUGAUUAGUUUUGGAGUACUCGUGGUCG;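 note: selection with 25 µg/mL kanamycin versus none on LB agar overnight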
Details: 30 °C
Measure: self-splicing fitness (ln)
Quick one: just the number, no unit, thanks!

{"Polymer Sequence": "UGAGAGCAAUAUUACGUCUG", "self-splicing fitness (ln)": -2.76}
{"Polymer Sequence": "UAGCAGCAAUAUUACGUAGC", "self-splicing fitness (ln)": -3.58}

The record that follows has no self-splicing fitness (ln) shown yet.
Documented self-splicing fitness (ln) of `CACCAGCAAUAUUACGUUCA` : -3.07

###

Assay: self-splicing fitness, log relative to wild type (ln ratio); higher = more splicing; Tetrahymena group I intron in knt gene, E. coli kanamycin selection, DiMSum; sequences stand for … in CUCUCU…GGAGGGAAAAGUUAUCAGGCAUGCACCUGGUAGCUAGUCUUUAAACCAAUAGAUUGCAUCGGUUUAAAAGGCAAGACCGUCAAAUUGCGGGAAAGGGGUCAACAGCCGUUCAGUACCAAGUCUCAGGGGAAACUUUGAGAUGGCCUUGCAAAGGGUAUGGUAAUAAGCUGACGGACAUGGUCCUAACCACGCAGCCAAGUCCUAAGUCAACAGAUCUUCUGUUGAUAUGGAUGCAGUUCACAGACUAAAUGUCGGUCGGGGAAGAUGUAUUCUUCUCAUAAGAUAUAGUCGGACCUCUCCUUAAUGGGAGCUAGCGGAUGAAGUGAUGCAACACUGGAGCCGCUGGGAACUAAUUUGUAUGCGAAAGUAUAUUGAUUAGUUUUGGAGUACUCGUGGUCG
Conditions: 37 °C
Ranges used to classify self-splicing fitness (ln): range 1 (below -2), range 2 (-2 to below -0.7), range 3 (-0.7 or more)

{"Polymer Sequence": "CUCGAGCAAUAUUACGCCGG", "Class Assignment": "range 2"}
{"Polymer Sequence": "GCUUAGCAAUAUUACGGCAA", "Class Assignment": "range 1"}
{"Polymer Sequence": "AAAAAGCAAUAUUACGCUUG", "Class Assignment": "range 2"}
{"Polymer Sequence": "UUCCAGCAAUAUUACGGAUA", "Class Assignment": "range 3"}
{"Polymer Sequence": "UAGAAGCAAUAUUACGGAAG", "Class Assignment": "range 3"}
{"Polymer Sequence": "AUGUAGCAAUAUUACGAUUU", "Class Assignment": "range 3"}

Query string: Exam item: assign `ACUUAGCAAUAUUACGCAUA` to the correct category.
Result string: range 2

Query string: GET /class?item= `UAUUAGCAAUAUUACGAUUC`
Result string: range 3

Query string: Kindly state the category for this sequence: `GAUAAGCAAUAUUACGCGGU`
Result string: range 2

Query string: Sort into band: `CGUCAGCAAUAUUACGUGUG`
Result string: range 3

Query string: Which self-splicing fitness (ln) category applies to `UAGAAGCAAUAUUACGCUUG` here?
Result string: range 2

Query string: Which category does the recorded self-splicing fitness (ln) put `AAGAAGCAAUAUUACGGGUA` in?
Result string: range 3

Query string: Lab note: which band did `UCCAAGCAAUAUUACGCUAU` land in?
Result string: range 1

Query string: Which category fits this record: `AAUAAGCAAUAUUACGUUCG`
Result string: range 3

Query string: // bin(item) where item = `UCUCAGCAAUAUUACGAGAU`
Result string: range 1

Query string: Returns: class label. Input: `CUCCAGCAAUAUUACGGUUA`
Result string: range 1

Reference for the values: the supplement of paper PMC7877785
